- System: SEM cells
- MEASUREMENT NOTES: cell viability relative to DMSO control; higher = less cytotoxic
- CONDITION PARAMETERS: HPLM + 10% dialyzed FBS; 48 h; 0.0211 µM
MEASURED METRIC: cell viability (%)
Output spec: scalar in %, unitless text.

Some molecules with known cell viability results, for comparison:
MOLECULE | UNIT NAME | cell viability
CN(C)Cc1cccc(N/C(=C2\C(=O)Nc3cc(C(=O)N(C)C)ccc32)c2ccccc2)c1 | % | 98.6
CNCCN(C)Cc1c[nH]nc1-c1ccc(O[C@H]2C[C@H](OCCC3CCOCC3)C2)cc1 | % | 110
CN1\C(=C(O)/C2=C(C=C(Cl)S2)[S+]1([O-])=O)C(=O)NC3=NC=CC=C3 | % | 24.6

Query string: What cell viability appears in the records for this molecule with SEM cells? NC(=O)Cc1cccc(C(=O)c2ccccc2)c1N
Result string: 39.7

Query string: How about CC(C)C1=N[N](C\2=C1C(=O)N\C(=N2)CC3=CC=C(OCCO)C=C3)C4=C(Cl)C=CC=C4Cl ?
Result string: 109

Query string: Input O=C(c1ccc(C(=O)N2CCC(N3CCCC3)CC2)c(Nc2ccccc2)c1)N1CCC(N2CCCC2)CC1
Result string: 94.8

Query string: Lookup CCN(CCO)CCCC(C)Nc1ccnc2cc(Cl)ccc12 (centres undefined)
Result string: 76.2

Query string: How about this molecule: CNC(=O)c1ccccc1Sc1ccc2c(/C=C/c3ccccn3)n[nH]c2c1
Result string: 116

Query string: What would you report for NNC(=O)c1ccncc1 ?
Result string: 92.9

====

- System: NOMO1
- MEASUREMENT NOTES: AUC of viability dose-response curve (% viability x log10 dose units); higher = less sensitive
- CONDITION PARAMETERS: HPLM + 10% dialyzed FBS; 48 h
MEASURED METRIC: AUC of viability dose-response curve
Format: numeric value only, no unit, no commentary.

Example results:
COMPOUND | TEST SYSTEM | AUC of viability dose-response curve
O=C1Cc2cc(CCN3CCN(c4nsc5ccccc45)CC3)c(Cl)cc2N1 | NOMO1 | 444
CC(C)C[C@@H](C(=O)N[C@H](C(=O)OC1CCCC1)c1ccccc1)[C@H](O)C(=O)NO | NOMO1 | 451
CC[P](CC)(CC)=[Au][S][C@@H]1O[C@H](COC(C)=O)[C@@H](OC(C)=O)[C@H](OC(C)=O)[C@H]1OC(C)=O | NOMO1 | 357
O=C(O)CCCc1ccc(N(CCCl)CCCl)cc1 | NOMO1 | 468

# ---- query compound ----
Query string: What AUC of viability dose-response curve value was documented for this compound, CC(CCc1ccc(O)cc1)NCCc1ccc(O)c(O)c1 (stereo not given) ?
Result string: 463

====

- System: SEM cells
- MEASUREMENT NOTES: cell viability relative to DMSO control; higher = less cytotoxic
- CONDITION PARAMETERS: RPMI 5 mM glucose + 10% dialyzed FBS; 48 h; 0.000781 µM
Each entry below carries its reported cell viability.
Give just the numeric value; % need not be written.

Use these answered entries as a reference point.
COMPOUND | cell viability [%]
CN1CCN(c2cc(C(=O)Nc3ccc4c(c3)-c3c(c(C(N)=O)nn3-c3ccc(F)cc3)CC4)c(Cl)cn2)CC1 | 125
COc1ccccc1OCC(O)CN1CCN(CC(=O)Nc2c(C)cccc2C)CC1 (stereo unspecified) | 115
CON(C)C(=O)N1\N=C(/S[C@]1(CCCN)C2=CC=CC=C2)C3=CC(=CC=C3F)F | 21.2
Cc1nc(N)sc1-c1ccnc(Nc2ccc(N3CCOCC3)cc2)n1 | 81

Query string: Given O=C(N[C@H]1CN2CCC1CC2)c1ccc(Cl)cc1 , state its recorded cell viability.
Result string: 93.2

Query string: Item: CO[C@H]1C[C@H]2OC[C@@]2(OC(C)=O)[C@H]3[C@H](OC(=O)C4=CC=CC=C4)[C@]5(O)C[C@H](OC(=O)[C@H](O)[C@@H](NC(=O)OC(C)(C)C)C6=CC=CC=C6)/C(=C(/[C@@H](OC)C(=O)[C@]13C)C5(C)C)C
Result string: 64

Query string: And the next one, C=C1C(=O)O[C@@H]2[C@H]3O[C@]3(C)CC/C=C(\C)CC[C@@H]12 ?
Result string: 104

Query string: Please give the result for O=C(O)C(=O)Nc1cccc(-c2nnn[nH]2)c1 too.
Result string: 98.8

Query string: Same question, CCN(CC)CCNC(=O)c1ccc2nc(-c3ccccc3)c(-c3ccc(CN4CCC(n5c(=O)[nH]c6ccccc65)CC4)cc3)nc2c1 this time
Result string: 117
